- EXPERIMENTAL_TARGET: human Gal-3 (hGal-3) (Homo sapiens (Human), UniProt P17931)
- Sequence (P17931 whole entry): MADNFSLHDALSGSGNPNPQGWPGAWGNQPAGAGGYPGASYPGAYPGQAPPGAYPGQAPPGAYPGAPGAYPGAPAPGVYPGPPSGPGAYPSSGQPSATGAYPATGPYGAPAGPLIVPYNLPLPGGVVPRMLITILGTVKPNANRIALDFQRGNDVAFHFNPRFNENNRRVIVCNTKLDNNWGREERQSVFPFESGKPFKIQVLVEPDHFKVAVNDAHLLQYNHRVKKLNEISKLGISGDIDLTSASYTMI
- PROCEDURE_TEXT: Competitive binding assay: biotinylated hGal-3 binding to microplate-adsorbed asialofetuin (ASF)
- APPLIED_CONDITIONS: Activity on hGal-3; mean values of several measurements; mixture of diastereomers measured where not separated
ASSAY_ENDPOINT: IC50 (nM)
The figure you give is taken to be in nM; do not add the unit.

Ask: Fill blank: measured IC50 of the compound "CO[C@@H]1[C@@H](n2cc(-c3cc(F)c(F)c(F)c3)nn2)[C@@H](O)[C@@H](CO)O[C@H]1C(=O)N(c1cc(C)cc(Br)c1)[C@H]1CCOC[C@@H]1O" is ____.
Reply: 14

Ask: Fill blank: measured IC50 of the compound "CO[C@@H]1[C@@H](n2cc(-c3cc(F)c(F)c(F)c3)nn2)[C@@H](O)[C@@H](CO)O[C@H]1C(=O)N(c1cc(Cl)cc(Cl)c1)[C@H]1CNC[C@@H]1O" is ____.
Reply: 23

Ask: Fill blank: measured IC50 of the compound "CO[C@@H]1[C@@H](n2cc(-c3cc(F)c(C)c(F)c3)nn2)[C@@H](O)[C@@H](CO)O[C@H]1C(=O)N(c1cc(Br)cc(C#N)c1)[C@@H]1COC[C@H]1O" is ____.
Reply: 81

Ask: Fill blank: measured IC50 of the compound "CO[C@@H]1[C@@H](n2cc(-c3cc(F)c(F)c(F)c3)nn2)[C@@H](O)[C@@H](CO)O[C@H]1C(=O)N(c1cc(C)cc(Br)c1)[C@@H]1CNC[C@H]1O" is ____.
Reply: 222

Please turn your attention to the following entry.
Ask: Fill blank: measured IC50 of the compound "CO[C@@H]1[C@@H](n2cc(-c3cc(F)c(F)c(F)c3)nn2)[C@@H](O)[C@@H](CO)O[C@H]1C(=O)N(c1cc(C)cc(Br)c1)[C@@H]1COCC[C@H]1O" is ____.
Reply: 315

###

- EXPERIMENTAL_TARGET: human Gal-3 (hGal-3) (Homo sapiens (Human), UniProt P17931)
- PROCEDURE_TEXT: Competitive binding assay: biotinylated hGal-3 binding to microplate-adsorbed asialofetuin (ASF)
- APPLIED_CONDITIONS: Activity on hGal-3; mean values of several measurements; mixture of diastereomers measured where not separated
pIC50: −log10 of the molar value.
Each entry gets Criterion not met if its pIC50 stays under 7, and Criterion met if its pIC50 is 7 or above.

Take a look at these entries with their results.
Ask: Determine whether measured pIC50 meets or exceeds 7 for "CO[C@@H]1[C@@H](n2cc(-c3cc(F)c(F)c(F)c3)nn2)[C@@H](O)[C@@H](CO)O[C@H]1C(=O)N(c1cc(C)cc(Br)c1)[C@@H]1COC[C@H]1O"
Reply: Criterion not met

Ask: Determine whether measured pIC50 meets or exceeds 7 for "CO[C@@H]1[C@@H](n2cc(-c3cc(F)c(F)c(F)c3)nn2)[C@@H](O)[C@@H](CO)O[C@H]1C(=O)N(c1cc(C)cc(Br)c1)[C@H]1CNC[C@@H]1O"
Reply: Criterion met

Ask: Determine whether measured pIC50 meets or exceeds 7 for "CO[C@@H]1[C@@H](n2cc(-c3ccc(Cl)c(Cl)c3)nn2)[C@@H](O)[C@@H](CO)O[C@H]1C(=O)N(c1cc(Cl)cc(Cl)c1)[C@H]1CNC[C@@H]1O"
Reply: Criterion met

Continuing:
Ask: Determine whether measured pIC50 meets or exceeds 7 for "CO[C@@H]1[C@@H](n2cc(-c3ccc(Cl)c(Cl)c3)nn2)[C@@H](O)[C@@H](CO)O[C@H]1C(=O)N(c1cc(Br)cc(Br)c1)[C@@H]1COC[C@H]1O"
Reply: Criterion not met

Ask: Determine whether measured pIC50 meets or exceeds 7 for "CO[C@@H]1[C@@H](n2cc(-c3cc(F)c(F)c(F)c3)nn2)[C@@H](O)[C@@H](CO)O[C@H]1C(=O)N(c1cc(C)cc(Br)c1)[C@H]1CNCC[C@@H]1O"
Reply: Criterion met

Ask: Determine whether measured pIC50 meets or exceeds 7 for "CO[C@@H]1[C@@H](n2cc(-c3cc(F)c(F)c(F)c3)nn2)[C@@H](O)[C@@H](CO)O[C@H]1C(=O)N(c1cc(C)cc(Br)c1)[C@@H]1CCOC[C@H]1O"
Reply: Criterion not met

Ask: Determine whether measured pIC50 meets or exceeds 7 for "CO[C@@H]1[C@@H](n2cc(-c3ccc(C)c(F)c3F)nn2)[C@@H](O)[C@@H](CO)O[C@H]1C(=O)N(c1cc(C)cc(Br)c1)[C@@H]1CNC[C@H]1O"
Reply: Criterion met

Ask: Determine whether measured pIC50 meets or exceeds 7 for "CO[C@@H]1[C@@H](n2cc(-c3ccc(C)c(F)c3F)nn2)[C@@H](O)[C@@H](CO)O[C@H]1C(=O)N(c1cc(Br)cc(C#N)c1)[C@H]1COC[C@@H]1O"
Reply: Criterion met

Ask: Determine whether measured pIC50 meets or exceeds 7 for "CO[C@@H]1[C@@H](n2cc(-c3cc(F)c(F)c(F)c3)nn2)[C@@H](O)[C@@H](CO)O[C@H]1C(=O)N(c1cc(Br)cc(Br)c1)[C@H]1COC[C@@H]1O"
Reply: Criterion met

Ask: Determine whether measured pIC50 meets or exceeds 7 for "CO[C@@H]1[C@@H](n2cc(-c3cc(F)c(Cl)c(F)c3)nn2)[C@@H](O)[C@@H](CO)O[C@H]1C(=O)N(c1cc(Br)cc(Br)c1)[C@H]1COC[C@@H]1O"
Reply: Criterion met

Ask: Determine whether measured pIC50 meets or exceeds 7 for "CO[C@@H]1[C@@H](n2cc(-c3ccc(Br)c(F)c3F)nn2)[C@@H](O)[C@@H](CO)O[C@H]1C(=O)N(c1cc(C)cc(Br)c1)[C@@H]1COC[C@H]1O"
Reply: Criterion met

Ask: Determine whether measured pIC50 meets or exceeds 7 for "CO[C@@H]1[C@@H](n2cc(-c3cc(F)c(C)c(F)c3)nn2)[C@@H](O)[C@@H](CO)O[C@H]1C(=O)N(c1cc(C)cc(Br)c1)[C@@H]1CN(C(C)=O)C[C@H]1O"
Reply: Criterion met

Ask: Determine whether measured pIC50 meets or exceeds 7 for "CO[C@@H]1[C@@H](n2cc(-c3cc(F)c(Cl)c(F)c3)nn2)[C@@H](O)[C@@H](CO)O[C@H]1C(=O)N(c1cc(C)cc(Br)c1)[C@H]1CN(C(C)=O)C[C@@H]1O"
Reply: Criterion met

###

- EXPERIMENTAL_TARGET: human Gal-3 (hGal-3) (Homo sapiens (Human))
- PROCEDURE_TEXT: Competitive binding assay: biotinylated hGal-3 binding to microplate-adsorbed asialofetuin (ASF)
- APPLIED_CONDITIONS: Activity on hGal-3; mean values of several measurements; mixture of diastereomers measured where not separated
Listing of recorded pIC50 by entry.
Please note pIC50 is a logarithmic value: minus log10 of concentration in mol/L. Answer with that number alone.

Look over these answered cases.
Ask: Hello, I am looking for reported pIC50 with human Gal-3 (hGal-3) (Homo sapiens (Human)) for CO[C@@H]1[C@@H](n2cc(-c3cc(F)c(C)c(F)c3)nn2)[C@@H](O)[C@@H](CO)O[C@H]1C(=O)N(c1cc(C)cc(Br)c1)[C@H]1COC[C@@H]1O [Example 18] . Could you help?
Reply: 7.16

Ask: Hello, I am looking for reported pIC50 with human Gal-3 (hGal-3) (Homo sapiens (Human)) for CO[C@@H]1[C@@H](n2cc(-c3cc(F)c(C)c(F)c3)nn2)[C@@H](O)[C@@H](CO)O[C@H]1C(=O)N(c1cc(Br)cc(Br)c1)[C@H]1CN(C(C)=O)C[C@@H]1O [Example 74] . Could you help?
Reply: 7.57

Ask: Hello, I am looking for reported pIC50 with human Gal-3 (hGal-3) (Homo sapiens (Human)) for CO[C@@H]1[C@@H](n2cc(-c3cc(F)c(C)c(F)c3)nn2)[C@@H](O)[C@@H](CO)O[C@H]1C(=O)N(c1cc(C)cc(Br)c1)[C@H]1CN(C(C)=O)C[C@@H]1O [Example 75] . Could you help?
Reply: 7.66

Ask: Hello, I am looking for reported pIC50 with human Gal-3 (hGal-3) (Homo sapiens (Human)) for CO[C@@H]1[C@@H](n2cc(-c3cc(F)c(Cl)c(F)c3)nn2)[C@@H](O)[C@@H](CO)O[C@H]1C(=O)N(c1cc(C)cc(Br)c1)[C@@H]1CN(C(C)=O)C[C@H]1O [Example 83] . Could you help?
Reply: 7.17

Please turn your attention to the following entry.
Ask: Hello, I am looking for reported pIC50 with human Gal-3 (hGal-3) (Homo sapiens (Human)) for CO[C@@H]1[C@@H](n2cc(-c3cc(F)c(C)c(F)c3)nn2)[C@@H](O)[C@@H](CO)O[C@H]1C(=O)N(c1cc(Br)cc(Br)c1)[C@@H]1CN(C(C)=O)C[C@H]1O [Example 81] . Could you help?
Reply: 7.40
